# maps each entry to its Log10TGI50
- Test system: NCI-H23
- test_name: NCI 60 cell line panel screen (SRB)
- Type: cell-based, human
- settings: NCI-H23 (Non-Small Cell Lung Cancer); TGI: PG=0

molecule | Log10TGI50
C[C@@H]1CC[C@H]2[C@@H](C)C(=O)O[C@@H]3O[C@]4(C)CC[C@@H]1[C@]32OO4 | >−4.00 log10M
CC1CCC2C(C)C(CC(COCC(=O)O)CC3OC4OC5(C)CCC6C(C)CCC(C3C)C46OO5)OC3OC4(C)CCC1C32OO4 (stereo not drawn) [Compound 12b, bis-trioxane O-acetic acid] | >−4.30 log10M
CC1CCC2C(C)C(CC(COC(=O)CCC(=O)O)CC3OC4OC5(C)CCC6C(C)CCC(C3C)C46OO5)OC3OC4(C)CCC1C32OO4 (stereo not drawn) [Compound 8a, bis-trioxane primary succinate monoester] | >−4.30 log10M
